# credit: PubChem BioAssay AID463173

Tested on: DeltatarO mutant
test-summary: S. aureus survival, RN4220 and DeltatarO strains – OD600, teichoic acid synthesis inhibitors, primary screen (AID 463173)
run-conditions: S. aureus RN4220 wild type/DeltatarO growth, OD600, 18 h, stronger effect = lower value, screened at 18.75 µg/mL (by protocol)
Among all 52,000 compounds or so, about 4,300 (8.3%) were called active. This excerpt belongs to a sample that is enriched for actives.
true (1) if survival is below 80%. false (0) if not; exact matches included in false (0).

INSERT INTO results (compound, label_value) VALUES
  ('Cc1c(Cl)cccc1NC(=O)CN1C(=O)COc2ccc(S(=O)(=O)N3CCOCC3)cc21', 'false (0)'),
  ('CC(=O)Nc1ccc(NS(=O)(=O)c2c(C(=O)N3CCCCCC3)c(C)n(C)c2C)cc1', 'true (1)'),
  ('CCC1SC(NC(=O)COc2ccc(OC)cc2)=NC1=O (stereo not given)', 'false (0)'),
  ('COc1cccc(-c2cn3c(n2)sc2cc(C(=O)NCCc4ccccc4)ccc23)c1', 'true (1)'),
  ('CCCn1c(=O)c2sccc2n2c(CCCC(=O)Nc3ccc(C)c(F)c3)nnc12', 'false (0)'),
  ('CCOC(=O)C1CCN(C(c2ccc(C)cc2)c2c(O)cc(C)n(CCOC)c2=O)CC1 (stereo not given)', 'true (1)'),
  ('Cc1cc(=O)n(CC(=O)Nc2cccc([N+](=O)[O-])c2)c(-n2nc(C)cc2C)n1', 'false (0)'),
  ('CCc1ccc(-c2cn3c(n2)sc2cc(C(=O)NCCc4ccc(OC)cc4OC)ccc23)cc1', 'true (1)'),
  ('Cn1c(Nc2ccc(Cl)cc2)cc(=O)n(C)c1=O', 'false (0)');

* * *

System: DeltatarO mutant
test-summary: S. aureus survival, RN4220 and DeltatarO strains – OD600, teichoic acid synthesis inhibitors, primary screen (AID 463173)
run-conditions: S. aureus RN4220 wild type/DeltatarO growth, OD600, 18 h, stronger effect = lower value, screened at 18.75 µg/mL (by protocol)
Screen size: about 52,000 compounds; about 4,300 (8.3%) were called active. This is one part of a sample in which actives are shown more often than they occur.
Reported survival is given for each of the following molecules.
quantity-name: survival (%)

INSERT INTO measurements (molecule, measurement_target, measured_number) VALUES
  ('CCOC(=O)c1ccc(CN(Cc2ccccc2C)S(=O)(=O)c2ccc(F)c(C)c2)cc1', 'DeltatarO mutant', 80),
  ('CCC(=O)N1CCc2cc(Br)cc(S(=O)(=O)N3CCC(C(=O)Nc4cccc(C)c4)CC3)c21', 'DeltatarO mutant', 80),
  ('CCOc1cc(C2c3c(oc4ccccc4c3=O)C(=O)N2Cc2ccc3c(c2)OCO3)ccc1O (stereo not given)', 'DeltatarO mutant', 81),
  ('CCOc1cccc(C2c3c(oc4ccccc4c3=O)C(=O)N2c2nc(C)c(C(=O)OC)s2)c1 (stereo not given)', 'DeltatarO mutant', 51),
  ('O=C(Cc1ccccc1)Nc1sc2c(c1C(=O)Nc1ccccc1)CCCCC2', 'DeltatarO mutant', 50);

* * *

Tested on: DeltatarO mutant
test-summary: S. aureus survival, RN4220 and DeltatarO strains – OD600, teichoic acid synthesis inhibitors, primary screen (AID 463173)
run-conditions: S. aureus RN4220 wild type/DeltatarO growth, OD600, 18 h, stronger effect = lower value, screened at 18.75 µg/mL (by protocol)
About 4,300 (8.3%) of roughly 52,000 compounds were called active. What follows is part of a selection rich in actives, with near analogues and random picks from the rest.
quantity-name: survival (%)

INSERT INTO measurements (compound, quantity_name, measured_number) VALUES
  ('Cc1cccc(C)c1NC(=O)C(NS(=O)(=O)c1cccs1)c1ccccc1 (stereo not given)', 'survival', 56),
  ('COc1ccc(Nc2ncc(C(=O)N3CCN(c4ccc(OC)cc4)CC3)c3ccccc23)cc1', 'survival', 74),
  ('CC(=O)Nc1ccc(NC(=O)C(NS(=O)(=O)c2ccc(Br)s2)c2ccccc2)cc1 (stereo not given)', 'survival', 93),
  ('COc1ccc(-c2onc(C)c2C)cc1S(=O)(=O)N1CCN(c2ccc(Cl)cc2)CC1', 'survival', 64),
  ('O=C(NCc1ccccc1Br)C1CCCN(C(=O)N2CCOc3ccccc32)C1 (stereo not given)', 'survival', 73);
